test system: OAT1/3; experiment: Bottom-up IVIVE of CLint,sec, CLsec and CLr, relative activity factor (RAF) approach; parameters: species or system human
MEASUREMENT_LABEL: CLint,sec Predicted 4% HSA (L/h)

1) CC(C)c1nc(N(C)S(C)(=O)=O)nc(-c2ccc(F)cc2)c1/C=C/[C@@H](O)C[C@@H](O)CC(=O)O; 89.0

a = O=C(NC[C@H]1CN(c2ccc(N3CCOCC3=O)cc2)C(=O)O1)c1ccc(Cl)s1
b = CCCc1nc(C(C)(C)O)c(C(=O)O)n1Cc1ccc(-c2ccccc2-c2nnn[nH]2)cc1
c = Cc1ncc(CO)c(C(=O)O)c1O
input: Descending sort on CLint,sec Predicted 4% HSA required. Sort the labels as requested; that list is your answer.
output: b, a, c
(b: 976 L/h, a: 337.7 L/h, c: 32.6 L/h)

* * *

molecular target: human serum albumin (Homo sapiens, UniProt P02768); assay: Extent of albumin binding: high throughput equilibrium dialysis (fu,inc, Kd); type: in vitro ADME; conditions: human, 4% HSA in DPBS, 4% HSA, equilibrium dialysis 37 °C 6 h, mean ± SD; read-out: fu,inc (4%)
Sequence (P02768 25-609): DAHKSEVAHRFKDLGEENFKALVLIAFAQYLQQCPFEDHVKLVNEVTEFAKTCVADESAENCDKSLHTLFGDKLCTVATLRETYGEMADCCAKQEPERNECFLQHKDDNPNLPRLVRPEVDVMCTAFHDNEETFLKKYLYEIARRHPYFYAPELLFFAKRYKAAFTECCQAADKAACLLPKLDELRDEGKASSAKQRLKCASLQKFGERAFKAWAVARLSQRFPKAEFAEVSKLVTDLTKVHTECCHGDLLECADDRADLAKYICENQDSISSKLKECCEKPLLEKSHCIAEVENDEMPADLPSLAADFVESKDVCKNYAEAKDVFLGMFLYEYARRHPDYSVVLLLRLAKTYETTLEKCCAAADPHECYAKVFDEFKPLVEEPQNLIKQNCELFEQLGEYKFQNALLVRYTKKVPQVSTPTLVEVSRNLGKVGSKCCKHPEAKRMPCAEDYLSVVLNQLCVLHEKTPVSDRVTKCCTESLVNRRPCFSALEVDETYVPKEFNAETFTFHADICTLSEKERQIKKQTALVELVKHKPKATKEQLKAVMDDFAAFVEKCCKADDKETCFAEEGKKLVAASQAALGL
MEASUREMENT_LABEL: fraction unbound at 6 h

Below: 3 molecules and their reported fraction unbound at 6 h.
1. CCCc1nc(C(C)(C)O)c(C(=O)O)n1Cc1ccc(-c2ccccc2-c2nnn[nH]2)cc1; 0.002
2. O=C(NC[C@H]1CN(c2ccc(N3CCOCC3=O)cc2)C(=O)O1)c1ccc(Cl)s1; 0.096
3. CC(C)c1nc(N(C)S(C)(=O)=O)nc(-c2ccc(F)cc2)c1/C=C/[C@@H](O)C[C@@H](O)CC(=O)O; 0.18

1 = CCCCNc1cc(C(=O)O)cc(S(N)(=O)=O)c1Oc1ccccc1 [bumetanide]
2 = Cc1ncc(CO)c(C(=O)O)c1O
input: Pick one, 1 or 2 : lowest reported fraction unbound at 6 h. The response must carry the label of the picked entry.
output: 1

* * *

system: OAT1/3; assay: Bottom-up IVIVE of CLint,sec, CLsec and CLr, relative expression factor (REF) approach; design: species or system human; conditions: REF approach
MEASUREMENT_LABEL: CLsec Predicted 1% HSA (L/h)

1. CC(C)c1nc(N(C)S(C)(=O)=O)nc(-c2ccc(F)cc2)c1/C=C/[C@@H](O)C[C@@H](O)CC(=O)O; 1.52
2. Nc1ncnc2c1ncn2CCOCP(=O)(O)O; 25.1

1 = Cc1ncc(CO)c(C(=O)O)c1O
2 = CCCc1nc(C(C)(C)O)c(C(=O)O)n1Cc1ccc(-c2ccccc2-c2nnn[nH]2)cc1
3 = O=C(NC[C@H]1CN(c2ccc(N3CCOCC3=O)cc2)C(=O)O1)c1ccc(Cl)s1
input: Descending sort on CLsec Predicted 1% HSA required. Sort the labels as requested; that list is your answer.
output: 3, 1, 2
